B1: Tudor domain-containing protein 3, residues 554 to 611; numbered along this chain, Q9H7E2 (parent)
chain: KMWKPGDECFALYWEDNKFYRAEVEALHSSGMTAVVKFIDYGNYEEVLLSNIKPIQTE

- Variants of: B1
- Assay Name: abundance fitness (aPCA) (normalised: wild type 0, dead -1); higher = more abundant; growth selection in yeast, the domain comes from the species named
- Run Parameters: Homo sapiens
Consider the following variants and their measured abundance fitness readings.
Parameter Measured: abundance fitness

| Mutant Label | Parameter Measured | Result Value |
| --- | --- | --- |
| K53R | abundance fitness | 0.008 |
| T33H | abundance fitness | -0.126 |
| Q56E | abundance fitness | 0.113 |
| T33Q | abundance fitness | -0.287 |
| K4L | abundance fitness | -0.287 |
| F19G | abundance fitness | -0.925 |
| D7H | abundance fitness | -0.764 |
| V24N | abundance fitness | -0.825 |
| K37N | abundance fitness | -0.567 |
| M32C | abundance fitness | -0.098 |
| I39M | abundance fitness | -0.093 |
| E25G | abundance fitness | -0.315 |
| K37A | abundance fitness | -0.996 |
| V35K | abundance fitness | 0.104 |
| N51G | abundance fitness | -0.462 |
| P54V | abundance fitness | -0.298 |
| L27S | abundance fitness | -0.749 |
| M2H | abundance fitness | -0.13 |
| V35H | abundance fitness | -0.403 |
| Y13T | abundance fitness | -0.323 |
| T33W | abundance fitness | -0.321 |
| G6D | abundance fitness | -0.874 |
